Examples of molecules with documented inhibition follow.
# assay-system: Discoidin domain-containing receptor 2 (Homo sapiens);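 further: reported values are mean percent inhibition of DDR2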
# Sequence (whole entry): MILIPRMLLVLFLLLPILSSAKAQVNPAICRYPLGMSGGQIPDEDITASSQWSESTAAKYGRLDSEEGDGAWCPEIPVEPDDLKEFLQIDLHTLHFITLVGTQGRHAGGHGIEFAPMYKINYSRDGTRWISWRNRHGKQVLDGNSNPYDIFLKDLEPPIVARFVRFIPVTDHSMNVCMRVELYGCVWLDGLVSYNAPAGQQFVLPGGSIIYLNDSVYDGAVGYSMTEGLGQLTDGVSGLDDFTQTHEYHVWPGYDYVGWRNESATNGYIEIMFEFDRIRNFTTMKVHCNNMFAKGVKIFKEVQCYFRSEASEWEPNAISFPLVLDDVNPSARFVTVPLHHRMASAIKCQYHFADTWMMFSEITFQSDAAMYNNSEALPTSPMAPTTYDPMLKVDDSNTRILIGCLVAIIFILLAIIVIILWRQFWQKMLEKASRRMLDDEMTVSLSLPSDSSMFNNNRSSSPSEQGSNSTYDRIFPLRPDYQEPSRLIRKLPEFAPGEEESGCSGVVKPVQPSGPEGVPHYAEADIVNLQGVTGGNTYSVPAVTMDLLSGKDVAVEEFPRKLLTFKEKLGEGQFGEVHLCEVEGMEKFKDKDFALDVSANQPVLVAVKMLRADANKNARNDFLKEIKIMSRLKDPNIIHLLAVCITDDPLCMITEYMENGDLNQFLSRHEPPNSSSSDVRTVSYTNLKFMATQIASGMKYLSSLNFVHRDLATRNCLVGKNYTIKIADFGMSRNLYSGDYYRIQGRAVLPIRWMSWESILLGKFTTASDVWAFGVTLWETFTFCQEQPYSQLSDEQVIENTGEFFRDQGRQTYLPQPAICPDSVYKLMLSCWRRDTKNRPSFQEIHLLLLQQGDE
# settings: at 0.1 µM
Only the number, expressed in %, is required.

Ask: Look up inhibition: NS(=O)(=O)c1cccc(-c2ccc3c(NC(=O)C4CC4)n[nH]c3c2)c1
Reply: -0.11

Ask: Look up inhibition: Nc1nc(-c2ccccn2)c(-c2ccc3ncccc3n2)s1
Reply: 3.14

Ask: Look up inhibition: CCn1c(-c2nonc2N)nc2cncc(C(=O)N3CCNCC3)c21
Reply: 1.63

Ask: Look up inhibition: CS(=O)(=O)CCNCc1nc(-c2ccc3ncnc(Nc4ccc(F)c(Cl)c4)c3c2)cs1
Reply: 7.7

Ask: Look up inhibition: COc1cc(C)c(NC(=O)CN(C)C)cc1Nc1nc(Nc2cccc(F)c2C(N)=O)c2cc[nH]c2n1
Reply: 2.03

More entries:
Ask: Look up inhibition: COc1ccc(COc2ccc(Cc3cnc(N)nc3N)cc2OC)cc1
Reply: 8.57

Ask: Look up inhibition: COc1ccc(-c2coc3ncnc(N)c23)cc1
Reply: 2.79

Ask: Look up inhibition: Cc1cc(O)cc(C)c1/C=C/c1cncc(-c2nn[nH]n2)c1
Reply: 1.73

Ask: Look up inhibition: O=C1NC(=O)C(c2cccc(Cl)c2)=C1Nc1ccc(O)c(Cl)c1
Reply: -1.25

Ask: Look up inhibition: c1cnn2ncc(-c3ccnc(Nc4ccc5c(c4)OCCO5)n3)c2c1
Reply: 2.85

Ask: Look up inhibition: COc1cc2ncn(-c3cc(OCc4ccccc4Cl)c(C(N)=O)s3)c2cc1OC
Reply: 0.71

Ask: Look up inhibition: COc1ccc(-c2ccncc2)cc1C(N)=O
Reply: 2.19

Ask: Look up inhibition: O=C1NC(=O)C(c2ccc(Cl)cc2)=C1Nc1ccc(Cl)c(C(=O)O)c1
Reply: 0.03

Ask: Look up inhibition: CN(C)c1cc2c(Nc3ccc4nc(Cc5ccccc5)[nH]c4c3)ncnc2cn1
Reply: 3.16

Ask: Look up inhibition: Cc1cccc(-c2n[nH]cc2-c2ccc3ncccc3n2)n1
Reply: 0.57

Ask: Look up inhibition: [O-][S+]1CCN(Cc2ccc(-c3ccc4ncnc(Nc5ccc(OCc6ccccc6)c(F)c5)c4c3)o2)CC1
Reply: 0.34

Ask: Look up inhibition: O=C(Nc1n[nH]c2nc(-c3ccco3)c(Br)cc12)C1CC1
Reply: 0.37

Ask: Look up inhibition: CCn1c(-c2nonc2N)nc2cnc(Oc3cccc(NC(=O)c4ccc(OCCN5CCOCC5)cc4)c3)cc21
Reply: 1.27

Ask: Look up inhibition: CNC(=O)c1cncc(/C=C/c2c(Cl)cccc2Cl)c1
Reply: 3.42

Ask: Look up inhibition: CS(=O)(=O)CCN(CC#N)Cc1ccc(-c2ccc3ncnc(Nc4ccc(OCc5cccc(F)c5)c(Cl)c4)c3c2)o1
Reply: 0.7
